- Target or test system: Pfs48/45 D1-2 (Plasmodium falciparum 3D7, UniProt Q8I6T1)
- Sequence (Q8I6T1 28-289): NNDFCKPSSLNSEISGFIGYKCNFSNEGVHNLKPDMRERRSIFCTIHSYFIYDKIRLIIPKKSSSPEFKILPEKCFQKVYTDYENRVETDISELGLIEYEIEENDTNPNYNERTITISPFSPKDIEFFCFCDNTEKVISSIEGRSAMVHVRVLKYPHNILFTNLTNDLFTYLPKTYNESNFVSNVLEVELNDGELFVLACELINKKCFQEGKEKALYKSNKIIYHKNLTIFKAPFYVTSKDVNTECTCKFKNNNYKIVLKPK
- Method description: ELISA
- Measurement context: both partners purified

Binder	binding result
RUPA-143 (antibody, V domains shown, human IgG1; source: recombinant human IgG1, 293T (Protein A purified) or GenScript) VH: QVQLVQSGAEVKKPGASVKVSCKASASTIANFAVSWVRQAPGQGLEWMGWISVYNVKTGDVKYAPKFQGRVTLTIDTATSTASMELRSLRFDDTAVYYCARANWYDNVWQEYFYGMDVWGQGTTVTVSS VL: DIQMTQSPLTLSASVGDRVTITCRASQSVSRFLAWYQQKPGKAPKLLMYKVSNLESGVPSRFSGSGFGTQFTLTISSLQPDDFATYYCQHYDAYPWTFGQGTKVEIK	binds
RUPA-99 (antibody, V domains shown, human IgG1; source: recombinant human IgG1, 293T (Protein A purified) or GenScript) VH: QVHLVQSGAEVKKPGASVKVSCKASGYNFLYHDITWVRQATGQGLEWLGWMNPNTGDTGYAQNFQGRVTMTRDMSRSTAYMELDSLRSEDTAVYYCARGVGSYHGSGGWLDPWGPGTLVIVSS VL: QSVLTQPPSVSETPGQRVTISCSGSSSNIGLNTVNWYQQLPGTAPNLLIHNDNQRPSGVPDRFSGSKSGTSASLAISGLHSEDEADYYCATWDDSLKRRVFGGGTKLTVL	binds
RUPA-153 (antibody, V domains shown, human IgG1; source: recombinant human IgG1, 293T (Protein A purified) or GenScript) VH: QVQLQESGPGLVKPSQTLSLTCTVSGSSVSSGGYYWSWIRQHPGKGLEWIGYLYYSGNTGNTFYNPSLKSRVTISADPSKNQFSLELSSVTAADTAMYYCARAVGVGRYFGYFPSWGLGTLVTVSS VL: EIVMTQSPATLSVSPGERATLSCRASQSVSSNLAWYQQKPGQTPRLLIYGSSTRATGIPARFSGSGSGTEFALTISSLQSEDFAVYYCQQYNNWPPPWTFGQGTKVEIK	binds
